assay: Inhibition of GST-tagged human EGFR D770GY mutant using poly(Glu, Tyr) 4:1 substrate incubated for 120 mins by kinase-Glo plus luminescent kinase assay
For each record, write down the corresponding IC50.
Report as a plain number; the unit nM is understood.

According to the records, this molecule C=CC(=O)Nc1cc(Nc2nccc(-c3cn(C)c4ccccc34)n2)c(OC)cc1N(C)CCN(C)C [OSIMERTINIB] displays IC50 of 0.858

Per the records, this molecule ( CN(C)C/C=C/C(=O)Nc1cccc(-c2c(-c3ccccc3)oc3ncnc(N[C@H](CO)c4ccccc4)c23)c1 ) has IC50 equal to 0.033

# IC50 (molecule: C=CC(=O)Nc1cccc(-c2c(-c3ccccc3)oc3ncnc(N[C@H](C)c4ccccc4)c23)c1 ) is 0.641

Lookup result for C=CC(=O)Nc1cccc(-c2c(-c3ccccc3)sc3ncnc(N[C@H](CO)c4ccccc4)c23)c1 ; measured IC50: 4.82

IC50 measured on C=CC(=O)N1CCC(Oc2cc3c(Nc4ccc(Cl)c(Cl)c4F)ncnc3cc2OC)CC1 [POZIOTINIB] = 0.082

Given item C=CC(=O)Nc1cccc(-c2c(-c3ccccc3OC)oc3ncnc(N[C@H](CO)c4ccccc4)c23)c1 , the value recorded as its IC50 is 0.295

###

test: Tmax in rat at 20 mg/kg, po; type: ADME, organism-based; conditions: in vivo
For each of the molecules below, state its Tmax.
Hi! Could you send only the number? It should be in h, unit omitted.

In plain terms, CN(C)C/C=C/C(=O)Nc1cc2c(Nc3ccc(F)c(Cl)c3)ncnc2cc1O[C@H]1CCOC1 has a documented Tmax of 4.2

Entry C=CC(=O)Nc1cccc(-c2c(-c3ccccc3)oc3ncnc(N[C@H](CO)c4ccccc4)c23)c1 ; Tmax = 1.2

###

target: Epidermal growth factor receptor (Homo sapiens, UniProt P00533, L858R/T790M)
Sequence (P00533 25-1210 T790M/L858R limits assumed): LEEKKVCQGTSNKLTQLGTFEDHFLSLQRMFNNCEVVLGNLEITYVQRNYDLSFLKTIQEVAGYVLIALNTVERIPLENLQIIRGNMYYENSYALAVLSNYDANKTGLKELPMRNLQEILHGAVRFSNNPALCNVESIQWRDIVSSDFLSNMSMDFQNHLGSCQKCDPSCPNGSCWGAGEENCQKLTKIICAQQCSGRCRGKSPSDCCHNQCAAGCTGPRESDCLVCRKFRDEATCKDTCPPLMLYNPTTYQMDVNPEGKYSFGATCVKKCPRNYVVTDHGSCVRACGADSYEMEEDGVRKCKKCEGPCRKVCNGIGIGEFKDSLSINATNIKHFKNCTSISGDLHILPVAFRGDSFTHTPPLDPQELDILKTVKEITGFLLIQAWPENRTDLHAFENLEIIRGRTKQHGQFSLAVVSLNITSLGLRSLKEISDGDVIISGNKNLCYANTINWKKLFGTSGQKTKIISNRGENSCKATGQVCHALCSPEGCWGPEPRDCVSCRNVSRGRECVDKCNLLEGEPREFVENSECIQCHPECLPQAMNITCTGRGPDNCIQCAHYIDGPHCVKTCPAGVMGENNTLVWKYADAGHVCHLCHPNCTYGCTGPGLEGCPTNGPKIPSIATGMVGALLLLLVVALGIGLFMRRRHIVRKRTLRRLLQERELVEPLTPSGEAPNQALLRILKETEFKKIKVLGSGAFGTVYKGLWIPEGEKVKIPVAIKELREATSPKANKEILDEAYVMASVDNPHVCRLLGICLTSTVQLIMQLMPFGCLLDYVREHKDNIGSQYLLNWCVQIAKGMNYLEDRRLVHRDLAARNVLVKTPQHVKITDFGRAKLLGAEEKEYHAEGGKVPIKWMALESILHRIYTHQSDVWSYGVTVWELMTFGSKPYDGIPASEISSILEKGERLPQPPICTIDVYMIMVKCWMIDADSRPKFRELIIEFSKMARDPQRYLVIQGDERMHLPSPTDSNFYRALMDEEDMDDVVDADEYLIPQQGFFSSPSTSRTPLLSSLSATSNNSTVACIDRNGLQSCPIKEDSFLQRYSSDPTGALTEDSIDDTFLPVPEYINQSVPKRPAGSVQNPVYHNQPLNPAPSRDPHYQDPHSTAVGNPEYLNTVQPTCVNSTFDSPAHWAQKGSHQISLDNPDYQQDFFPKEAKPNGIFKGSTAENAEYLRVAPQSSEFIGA
pIC50: −log10 of the molar value.
Note to self: values exactly at 6 are Satisfied. So pIC50 at or above 6 is Satisfied, below is Not satisfied.

Is the recorded value of pIC50 equal to or greater than 6 for this compound? CCN(C/C=C/C(=O)Nc1cccc(-c2c(-c3ccccc3)oc3ncnc(N[C@H](CO)c4ccccc4)c23)c1)CCO
Satisfied

In plain terms: is recorded pIC50 at least 6 for O=C(/C=C/CN1CCOCC1)Nc1cccc(-c2c(-c3ccccc3)oc3ncnc(N[C@H](CO)c4ccccc4)c23)c1 ?
Satisfied

Assess whether reported pIC50 for C=CC(=O)Nc1cccc(-c2c(-c3ccccc3)oc3ncnc(N[C@H](C)c4ccccc4)c23)c1 sits at 6 or higher.
Satisfied

Item C=CC(=O)Nc1cccc(-c2noc3ncnc(N[C@H](CO)c4ccccc4)c23)c1 with pIC50 of 6 or above?
Not satisfied

Reported pIC50 reaches at least 6 for O=C(/C=C/c1ccccc1)Nc1cccc(-c2c(-c3ccccc3)oc3ncnc(N[C@H](CO)c4ccccc4)c23)c1 ?
Not satisfied

Entry C=CC(=O)Nc1cccc(-c2coc3ncnc(N[C@H](CO)c4ccccc4)c23)c1 : is its pIC50 no less than 6?
Not satisfied

Can C=CC(=O)Nc1cccc(-c2c(-c3ccccc3)sc3ncnc(N[C@H](CO)c4ccccc4)c23)c1 be said to have pIC50 at or above 6?
Satisfied

###

What CC50 was measured for each of the following?
tested on: HCC827; assay: Cytotoxicity in human HCC827 cells assessed as reduction in cell viability incubated for 96 hrs by MTS method; assay type: functional
Write the answer as a number in µM, unit excluded.

compound C=CC(=O)Nc1cccc(-c2c(-c3ccccc3)oc3ncnc(N[C@H](CO)c4ccccc4)c23)c1 , CC50 observed: 0.024

# CC50 of C=CC(=O)Nc1cccc(-c2c(-c3ccccc3)oc3ncnc(N[C@@H](CO)c4ccccc4)c23)c1 = 0.84

get_value(item= CN(C)C/C=C/C(=O)Nc1cccc(-c2c(-c3ccccc3)oc3ncnc(N[C@@H](CO)c4ccccc4)c23)c1 , readout=CC50) returns 1.05

CC50 measured on CN(C)C/C=C/C(=O)Nc1cccc(-c2c(-c3ccccc3)oc3ncnc(N[C@H](CO)c4ccccc4)c23)c1 = 0.025
